GI50 overview
System: A549 NSCLC
protocol description: NCI tumour cell line growth inhibition, 48 h
Where a SMILES comes first, the peptide text is derived from it. [ ]: non-standard residue; d: D form. Phe(ol) = N[C@H](CO)Cc1ccccc1; Aib = CC(C)(N)C(=O)O

The cases that follow already have their GI50 on record.
molecule	system	GI50
Cc1cc2nc3c4cc(C#N)ccc4n(CCN(C)C)c3nc2cc1C	A549 NSCLC	666 nM
CC(=O)NC(C)(C)C(=O)N1CCC[C@H]1C(=O)NC(C)(C)C(=O)N[C@@H](C)C(=O)NC(C)(C)C(=O)NC(C)(C)C(=O)N[C@@H](CCC(N)=O)C(=O)NC(C)(C)C(=O)N[C@H](C(=O)NC(C)(C)C(=O)NCC(=O)N[C@@H](CC(C)C)C(=O)NC(C)(C)C(=O)N1CCC[C@H]1C(=O)N[C@H](C(=O)NC(C)(C)C(=O)NC(C)(C)C(=O)N[C@@H](CCC(N)=O)C(=O)N[C@@H](CCC(N)=O)C(=O)N[C@H](CO)Cc1ccccc1)C(C)C)C(C)C (Ac-[Aib]P[Aib]A[Aib][Aib]Q[Aib]V[Aib]GL[Aib]PV[Aib][Aib]QQ[Phe(ol)])	A549 NSCLC	1690 nM
CCNC(=O)N1CCc2cc(OC)c(OCCc3ccc(OC)cc3)cc2C1c1ccc([N+](=O)[O-])cc1C (centres undefined)	A549 NSCLC	840 nM

// moving on: another record for GI50
// query Please look up its GI50: "C#Cc1nc(C2=C(C)/C(=N/OCc3ccccc3)CC2)cs1"
// result 43400 nM

###

GI50 overview
System: CCRF-CEM leukemia
protocol description: NCI tumour cell line growth inhibition, 48 h
Where a SMILES comes first, the peptide text is derived from it. [ ]: non-standard residue; d: D form. Phe(ol) = N[C@H](CO)Cc1ccccc1; Aib = CC(C)(N)C(=O)O

The cases that follow already have their GI50 on record.
molecule	observable	data value
CC(=O)NC(C)(C)C(=O)N1CCC[C@H]1C(=O)NC(C)(C)C(=O)N[C@@H](C)C(=O)NC(C)(C)C(=O)NC(C)(C)C(=O)N[C@@H](CCC(N)=O)C(=O)NC(C)(C)C(=O)N[C@H](C(=O)NC(C)(C)C(=O)NCC(=O)N[C@@H](CC(C)C)C(=O)NC(C)(C)C(=O)N1CCC[C@H]1C(=O)N[C@H](C(=O)NC(C)(C)C(=O)NC(C)(C)C(=O)N[C@@H](CCC(N)=O)C(=O)N[C@@H](CCC(N)=O)C(=O)N[C@H](CO)Cc1ccccc1)C(C)C)C(C)C (Ac-[Aib]P[Aib]A[Aib][Aib]Q[Aib]V[Aib]GL[Aib]PV[Aib][Aib]QQ[Phe(ol)])	GI50	2.11 µM
Cc1cc2nc3c4cc(C#N)ccc4n(CCN(C)C)c3nc2cc1C	GI50	1.22 µM

// query Please look up its GI50: "C#Cc1nc(C2=C(C)/C(=N/OCc3ccccc3)CC2)cs1"
// result 3.28 µM

// query CC(Nc1c(C#N)cnc2ccc(-c3cncc(O)c3)cc12)c1ccccc1 (centres undefined) ?
// result 2.4 µM

###

TGI overview
System: A498 renal
protocol description: NCI tumour cell line growth inhibition, 48 h
Your answer should be a plain number; it is taken to be in µM.

molecule	data value
CC(Nc1c(C#N)cnc2ccc(-c3cncc(O)c3)cc12)c1ccccc1 (centres undefined)	18

// moving on: another record for TGI
// query Please look up its TGI: CCNC(=O)N1CCc2cc(OC)c(OCCc3ccc(OC)cc3)cc2C1c1ccc([N+](=O)[O-])cc1C (centres undefined)
// result 6.69

###

GI50 overview
Tested on: PC-3 prostate
protocol description: NCI tumour cell line growth inhibition, 48 h
Where a SMILES comes first, the peptide text is derived from it. [ ]: non-standard residue; d: D form. Phe(ol) = N[C@H](CO)Cc1ccccc1; Aib = CC(C)(N)C(=O)O

compound	system	GI50
CC(=O)NC(C)(C)C(=O)N1CCC[C@H]1C(=O)NC(C)(C)C(=O)N[C@@H](C)C(=O)NC(C)(C)C(=O)NC(C)(C)C(=O)N[C@@H](CCC(N)=O)C(=O)NC(C)(C)C(=O)N[C@H](C(=O)NC(C)(C)C(=O)NCC(=O)N[C@@H](CC(C)C)C(=O)NC(C)(C)C(=O)N1CCC[C@H]1C(=O)N[C@H](C(=O)NC(C)(C)C(=O)NC(C)(C)C(=O)N[C@@H](CCC(N)=O)C(=O)N[C@@H](CCC(N)=O)C(=O)N[C@H](CO)Cc1ccccc1)C(C)C)C(C)C (Ac-[Aib]P[Aib]A[Aib][Aib]Q[Aib]V[Aib]GL[Aib]PV[Aib][Aib]QQ[Phe(ol)])	PC-3 prostate	1340 nM

// query Checklist item: GI50 tested on PC-3 prostate, entry "C#CCn1cccc1CNc1ccc(OC)cc1" , value?
// result 16000 nM

// query "Cc1cc2nc3c4cc(C#N)ccc4n(CCN(C)C)c3nc2cc1C" ?
// result 1490 nM

// query CCNC(=O)N1CCc2cc(OC)c(OCCc3ccc(OC)cc3)cc2C1c1ccc([N+](=O)[O-])cc1C (centres undefined) ?
// result 559 nM

###

Tested on: DU-145 prostate
protocol description: NCI tumour cell line growth inhibition, 48 h
TGI overview

The cases that follow already have their TGI on record.
> print(dat)
                                   compound           system  data.value
1                 C#CCn1cccc1CNc1ccc(OC)cc1  DU-145 prostate    > 100 µM
2  CCNC(=O)N1CCc2cc(OC)c(OCCc3ccc(OC)cc3)cc2C1c1ccc([N+](=O)[O-])cc1C (centres undefined)  DU-145 prostate    > 100 µM
3   C#Cc1nc(C2=C(C)/C(=N/OCc3ccccc3)CC2)cs1  DU-145 prostate    > 100 µM

// moving on: another record for TGI
// query Please look up its TGI: "Cc1cc2nc3c4cc(C#N)ccc4n(CCN(C)C)c3nc2cc1C"
// result > 32.7 µM

###

Test system: SN12C renal
protocol description: NCI tumour cell line growth inhibition, 48 h
Where a SMILES comes first, the peptide text is derived from it. [ ]: non-standard residue; d: D form. Phe(ol) = N[C@H](CO)Cc1ccccc1; Aib = CC(C)(N)C(=O)O
observable: GI50

The cases that follow already have their GI50 on record.
compound	system	GI50
CC(Nc1c(C#N)cnc2ccc(-c3cncc(O)c3)cc12)c1ccccc1 (centres undefined)	SN12C renal	721 nM
Cc1cc2nc3c4cc(C#N)ccc4n(CCN(C)C)c3nc2cc1C	SN12C renal	770 nM
CCNC(=O)N1CCc2cc(OC)c(OCCc3ccc(OC)cc3)cc2C1c1ccc([N+](=O)[O-])cc1C (centres undefined)	SN12C renal	1840 nM

// moving on: another record for GI50
// query Please look up its GI50: CC(=O)NC(C)(C)C(=O)N1CCC[C@H]1C(=O)NC(C)(C)C(=O)N[C@@H](C)C(=O)NC(C)(C)C(=O)NC(C)(C)C(=O)N[C@@H](CCC(N)=O)C(=O)NC(C)(C)C(=O)N[C@H](C(=O)NC(C)(C)C(=O)NCC(=O)N[C@@H](CC(C)C)C(=O)NC(C)(C)C(=O)N1CCC[C@H]1C(=O)N[C@H](C(=O)NC(C)(C)C(=O)NC(C)(C)C(=O)N[C@@H](CCC(N)=O)C(=O)N[C@@H](CCC(N)=O)C(=O)N[C@H](CO)Cc1ccccc1)C(C)C)C(C)C (Ac-[Aib]P[Aib]A[Aib][Aib]Q[Aib]V[Aib]GL[Aib]PV[Aib][Aib]QQ[Phe(ol)])
// result 931 nM

This collection of values is drawn from PubChem BioAssay (NCI).
